Exercise: for every item that follows, state its recorded MIC.
System: Staphylococcus aureus
experimental_details: Antimicrobial activity against methicillin-resistant Staphylococcus aureus ATCC 33592 after 18 to 24 hrs by alamar blue assay
Assay type: functional
recorded_conditions: Staphylococcus aureus, ATCC 33592; read-out: MIC
State just the number; it will be interpreted in mg/L.

In plain terms, O=C(Nc1ccc(NS(=O)(=O)c2ccc(Cl)cc2)cc1Cl)c1cc(Cl)ccc1O has a documented MIC of 32

In plain terms, Cc1c(CC(=O)NCCC(=O)O)c(=O)oc2c(C)c3occ(-c4ccc(Cl)cc4)c3cc12 has a documented MIC of 1.25

In plain terms, CSc1ccccc1-c1nnc(NC(=O)c2nc3ccccc3s2)o1 has a documented MIC of 2

In plain terms, Cc1c(CC(=O)N2CCC(C(=O)O)CC2)c(=O)oc2c(C)c3occ(-c4ccc(F)cc4)c3cc12 has a documented MIC of 1.25

In plain terms, Cc1ccc(NS(=O)(=O)c2ccc3c(c2)NCC(C)C(=O)S3)c(Br)c1 (stereo not given) has a documented MIC of 8

In plain terms, O=C(c1ccc(Cl)cc1)c1cc(NC(=O)c2cc(Cl)cc(Br)c2O)c(Cl)cc1Cl has a documented MIC of 0.25

In plain terms, Cc1ccccc1NS(=O)(=O)c1ccc2c(c1)NC(=O)C(C)S2 (stereo not given) has a documented MIC of 1.2

In plain terms, O=C(Nc1ccc(-c2nc3ccccc3[nH]2)cc1)c1ccc([N+](=O)[O-])o1 has a documented MIC of 0.25

In plain terms, O=C(Nc1ccc(Oc2ccc(Cl)c3cccnc23)c(Br)c1)c1cc(Br)cc(Br)c1O has a documented MIC of 16

In plain terms, CCN1C(=O)/C(=C/c2ccc([N+](=O)[O-])o2)SC1=S has a documented MIC of 0.5

In plain terms, Cc1c(CC(=O)O)c(=O)oc2c(C)c3occ(-c4ccc(Br)cc4)c3cc12 has a documented MIC of 2

In plain terms, O=C(Nc1ccc(Oc2ccc(Cl)cc2)c(Cl)c1)c1cc(Br)cc(Br)c1O has a documented MIC of 0.25

In plain terms, CCc1ccccc1NS(=O)(=O)c1ccc2c(c1)NC(=O)C(C)S2 (stereo not given) has a documented MIC of 1

In plain terms, O=C(Nc1nnc(-c2ccc(Br)cc2)o1)c1cccc(C(F)(F)F)c1 has a documented MIC of 1

In plain terms, CCCc1cc(O)nc(N2NC(C)=CC2NC(=O)c2ccccc2)n1 (stereo not given) has a documented MIC of 8

In plain terms, O=C(Nc1nnc(-c2ccc(F)cc2)o1)c1cccc(C(F)(F)F)c1 has a documented MIC of 0.5

In plain terms, CSc1nc2ccc(NC(=O)c3ccc([N+](=O)[O-])o3)cc2s1 has a documented MIC of 1

In plain terms, O=C(Nc1cc(Cl)ccc1Cl)c1cc(Br)cc(Br)c1O has a documented MIC of 1

In plain terms, Cc1ccc(N2C(=O)c3ccc([N+](=O)[O-])c4c([N+](=O)[O-])ccc(c34)C2=O)cc1 has a documented MIC of 2.5

In plain terms, CCC1Sc2ccc(S(=O)(=O)Nc3c(C)cc(C)cc3C)cc2NC1=O (stereo not given) has a documented MIC of 64

In plain terms, CSC[C@H](NC(=O)Cc1c(C)c2cc3c(-c4ccc(Cl)cc4)coc3c(C)c2oc1=O)C(=O)O has a documented MIC of 1.25

In plain terms, CCC(NC(=O)Cc1c(C)c2cc3c(-c4ccc(Cl)cc4)coc3c(C)c2oc1=O)C(=O)O (stereo not given) has a documented MIC of 5

In plain terms, Cc1c(CCC(=O)O)c(=O)oc2c(C)c3occ(-c4ccc(Cl)cc4)c3cc12 has a documented MIC of 1.25

In plain terms, CCc1cc(O)nc(N2NC(C)=CC2NC(=O)c2ccccc2F)n1 (stereo not given) has a documented MIC of 4

In plain terms, O=C(Nc1ccc(Cl)c(S(=O)(=O)Nc2cccc(Cl)c2)c1)c1ccc([N+](=O)[O-])o1 has a documented MIC of 1.5

In plain terms, Cc1c(CC(=O)NCCCC(=O)O)c(=O)oc2c(C)c3occ(-c4ccc(Cl)cc4)c3cc12 has a documented MIC of 2.5

In plain terms, Cc1c(CC(=O)N2CCC(C(=O)O)(c3ccccc3)CC2)c(=O)oc2c(C)c3occ(-c4ccc(Cl)cc4)c3cc12 has a documented MIC of 2.5

In plain terms, O=C(Nc1ccc(Oc2ccc(Cl)c3cccnc23)c(Cl)c1)c1cc(Br)cc(Br)c1O has a documented MIC of 32

In plain terms, CCCc1cc(O)nc(N2NC(C)=CC2NC(=O)c2cccs2)n1 (stereo not given) has a documented MIC of 1

In plain terms, CCCC(NC(=O)Cc1c(C)c2cc3c(-c4ccc(Cl)cc4)coc3c(C)c2oc1=O)C(=O)O (stereo not given) has a documented MIC of 2.5

In plain terms, O=C(c1ccc(NC(=O)c2cc(Br)cc(Br)c2O)c(Cl)c1)c1cccs1 has a documented MIC of 4

In plain terms, Cc1ccc(C(C)C)c(Oc2ccc(Cl)cc2NC(=O)c2cc(Cl)cc(Cl)c2O)c1 has a documented MIC of 0.25

In plain terms, COc1ccccc1N1C(=O)c2cc([N+](=O)[O-])cc3cc([N+](=O)[O-])cc(c23)C1=O has a documented MIC of 2.5

In plain terms, Cc1ccc(C)c(NS(=O)(=O)c2ccc3c(c2)NCC(C)C(=O)S3)c1 (stereo not given) has a documented MIC of 16

In plain terms, O=C(Nc1cccc2cccnc12)c1ccc([N+](=O)[O-])o1 has a documented MIC of 2

In plain terms, O=C(Nc1ccc(Cl)c(Cl)c1)c1ccc([N+](=O)[O-])o1 has a documented MIC of 2

In plain terms, Cc1ccc(NS(=O)(=O)c2ccc3c(c2)NC(=O)C(C)S3)c(C)c1 (stereo not given) has a documented MIC of 32

In plain terms, O=C(Nc1ccc(Cl)cc1)c1cc(Br)cc(Br)c1O has a documented MIC of 4
